Data provenance: ChEMBL document CHEMBL1128770

Tested on: Rattus norvegicus
test_summary: Hepatoprotective activity against thioacetamide (200 mg/kg, sc) induced toxicity in rat at 6 mg/kg dose (po x 7 days), expressed as %protection afforded in various levels of alkaline phosphatase (ALP)
Assay type: functional
parameter: ALP Level (U l-1)
Only the number, expressed in U l-1, is required.

// below: answered compounds
{"compound": "Nc1nc(N)nc(Cc2cc(-c3ccc(F)cc3)[nH]n2)n1", "unit_abbreviation": "U l-1", "ALP Level": 203.2}
{"compound": "Nc1noc(N)c1Cc1ccc(Cl)cc1", "unit_abbreviation": "U l-1", "ALP Level": 201}
{"compound": "Nc1n[nH]c(N)c1Cc1ccc2c(c1)OCO2", "unit_abbreviation": "U l-1", "ALP Level": 196.9}

Would you kindly look at the next entry?
query: Which value of ALP Level has been reported for COc1ccc(Cc2c(N)n[nH]c2N)cc1 in the records?
result: 187
